- assayDetails: Solubility comparison in pH 1.8 SGF and high purity water, saturated solutions determined by HPLC
- Assay type: physicochemical
- experimentalContext: thermodynamic from solid; H2O (high purity water), 4 h
readoutLabel: solubility at 4 h
Please format your answer as a value with the unit trailing.

Entry under test: CCOc1cc2ncc(C#N)c(Nc3ccc(OCc4ccccn4)c(Cl)c3)c2cc1NC(=O)/C=C/CN(C)C [Form II, reference compound] . Its solubility at 4 h was 940 µg/mL

---

- assayDetails: Solubility comparison in pH 1.8 SGF and high purity water, saturated solutions determined by HPLC
- Assay type: physicochemical
- experimentalContext: simulated gastric fluid (SGF), simulated gastric fluid, thermodynamic from solid; pH 1.8 SGF, 24 h
readoutLabel: solubility at 24 h (µg/mL)
// note: answer is a bare numeric in µg/mL

Entry under test: CCOc1cc2ncc(C#N)c(Nc3ccc(OCc4ccccn4)c(Cl)c3)c2cc1NC(=O)/C=C/CN(C)C [Form II, reference compound] . Its solubility at 24 h was 3100
